# run_description: qHTS assay to identify small molecule agonists of the estrogen related receptor signaling pathway with the pleiotropic PPARgamma coactivator (PGC) from Tox21 10K library (AID 1224842); also: nearly all actives have a fitted effect of over 15% in size
# protocol_conditions: PGC/ERR reporter cell line, luciferase ONE-Glo, 18 h; series mostly up to 92.4 µM
Results filed as inconclusive are left out. Calls of active or inactive are those of the source. Calls follow the shape of the dose curve; as a rule, active = well fitted activation curve with a large enough effect in the repeat runs; inconclusive = weak or mixed curves, or effect the other way; inactive = no such curve, though single readings can be large or run the other way.
Form entry, call: pick from t = active, f = inactive

Field: example entries. Status: answers known.
compound: COc1ccc2cc1Oc1ccc(cc1)C[C@H]1c3c(cc4c(c3Oc3cc5c(cc3OC)CCN(C)[C@@H]5C2)OCO4)CCN1C
class_assignment: f
//
compound: Cc1ccc(O)c(O)c1
class_assignment: t
//
compound: CC(=O)c1ccc(C(C)=O)cc1
class_assignment: f

Look up the recorded call for CCCCC(CC)CN1CN(CC(CC)CCCC)CC(C)(N)C1 (centres undefined) in this test.
f

Look up the recorded call for "O=C1CCc2ccc(OCCCCN3CCN(c4cccc(Cl)c4Cl)CC3)cc2N1" in this test.
f

Look up the recorded call for "Cc1ccc(-c2ccccc2)cc1" in this test.
f

Look up the recorded call for "C1CCC(SSC2CCCCC2)CC1" in this test.
f

Look up the recorded call for "Cc1c(C)c([N+](=O)[O-])c(C(C)(C)C)c([N+](=O)[O-])c1C" in this test.
f
